target: T1, Histidine-tagged human 4-1BB protein (h4-1BB-His) (human, UniProt Q07011 24-186); experiment: SPR (Biacore T200), antibody on Protein A chip, h4-1BB-His injected;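 further: dissociation phase followed for 300 s, Kd derived as koff divided by kon from the kinetic fit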
T1 construct: not shown: histidine tag
metric: koff
Record the result as number plus unit.

binder	observed.measurement
1C4-H2K4-IgG4 (antibody, V domains shown, humanized) VH: QVQMVQSGAEVKKPGASVKLSCKASGFTFSSSYINWLRQAPGQSLEWIGWIFAGTGGTYYNQKFTGRVQITRDTSASTAYMELSSLRSEDTAIYYCARHSPRATLFDFWGQGTTLTVSS VL: EIVLTQSPATLSASPGERVTMSCRASSSVNHMHWYQQRPGFSPRAWIYATSNLASGIPARFSGSGSGTSYSLTISSLEPEDFATYYCQQWSSNPYTFGGGTKLEIK	0.000521 s⁻¹
6A5-H2K3-IgG2 (antibody, V domains shown, humanized) VH: QVQLVQSGAEVKKPGSSVKLSCKASGYTFSSYWINWVRQAPGQGLEWIGNIYPSDSYTNYNQKFKDRATLTVDKSTSTAYMELSSLRSEDTAVYYCTRTWEFYYDSVFDYWGQGTLVTVSS VL: DIQMTQSPSSLSASLGERVTITCKASQDINSYLSWFQQKPGKAPKTLIYRANRLVDGVPSRFSGSGSGQDFTLTISSLQPEDIATYYCLQYDELPPTFGGGTKVEIK	0.000504 s⁻¹

Give koff for 45-8E2-mHvKv-IgG2 (antibody, V domains shown) VH: EVKLLESGGGLVQPGGSLKLSCAASGFDFSRYWMSWVRQAPGKGLEWIGEIHPDSSAINYTPSLKDKFIISRDNAKNTLYLQMSKVRSEDTALYYCARSYYGRVFDYWGQGTTLTVSS VL: DIVMTQSPATLSVTPGDRVSLSCRASQSISDYLHWYQQKSHESPRLLIKYASQSISGIPPRFSGSGSGSDFTLSINSVEPEDVGMYYCQDGHSFPPTFGAGTKLELK
0.000413 s⁻¹

Using the record for 1C4-H1K3-IgG4 (antibody, V domains shown, humanized) VH: QVQMVQSGAEVKKPGASVKLSCKASGFTFSSSYINWLRQAPGQRLEWMGWIFAGTGGTYYNQKFTGRVTITRDTSASTAYMELSSLRSEDTAIYYCARHSPRATLFDFWGQGTTLTVSS VL: EIVLTQSPATLSLSPGERATMSCRASSSVNHMHWYQQKPGFSPRAWIYATSNLASGIPARFSGSGSGTSFTLTISSLEPEDFATYYCQQWSSNPYTFGGGTKLEIK , state its measured koff.
0.000623 s⁻¹
